Recorded values, source patent US20190135818A1.

# measured target: FGFR1 (Homo sapiens)
# Construct: The reaction was initiated by addition of FGFR kinase domain recombinant protein diluted with 49 μL of reaction buffer; purchased Millipore 14-482
# Sequence (P11362 478-767 limits assumed): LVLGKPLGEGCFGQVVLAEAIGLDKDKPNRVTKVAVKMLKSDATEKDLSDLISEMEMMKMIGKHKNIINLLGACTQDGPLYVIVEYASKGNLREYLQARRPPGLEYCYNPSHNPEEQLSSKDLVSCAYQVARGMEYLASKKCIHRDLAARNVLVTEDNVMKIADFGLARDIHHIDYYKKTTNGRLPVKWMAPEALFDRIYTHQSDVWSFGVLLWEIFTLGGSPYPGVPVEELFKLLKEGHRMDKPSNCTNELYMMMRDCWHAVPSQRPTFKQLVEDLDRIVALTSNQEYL
# protocol description: FGFR kinase inhibitory activity experiment (ELISA, Poly(Glu,Tyr)4:1 substrate)
# Type: biochemical
# run parameters: kinase recombinant protein FGFR1, ATP 5 μM
pIC50: −log10 of the molar value.
property label: pIC50

molecule	measured target	pIC50
C=CC(=O)NC1CCC(n2nc3c(=O)[nH]nc(N)c3c2-c2oc3ccc(C)cc3c2C)CC1 (stereo not shown) [Compound A33]	FGFR1 (Homo sapiens)	> 7.00

Data request: Find pIC50 (FGFR1 (Homo sapiens)) for the entry C=CC(=O)N1CC(Cn2nc3c(=O)[nH]nc(N)c3c2-c2oc3ccc(C)cc3c2C)C1 [Compound A45]
Data returned: > 7.00

Data request: Observed pIC50 on FGFR1 (Homo sapiens) for Cc1ccc2oc(-c3c4c(N)n[nH]c(=O)c4nn3-c3ccc(Cl)cc3)c(C)c2c1 [Compound A13] , please.
Data returned: > 7.00

Data request: API: value(readout= pIC50, system= FGFR1 (Homo sapiens), query= C=CC(=O)N1CCCC(n2nc3c(=O)[nH]nc(N)c3c2-c2oc3ccc(Cl)cc3c2C)C1 (stereo not shown) [Compound A87] )
Data returned: > 7.00
